melting point values for the molecules below.

Sample answers from the record:
INSERT INTO results (molecule, measured_attribute, recorded_measurement) VALUES
  ('CCC(CC)Sc1cc2c(cc1Cl)N=C(C(N)=O)NS2(=O)=O', 'melting point', '287 to 289 °C'),
  ('O=C1CCCN1CC1(O)CCN(c2ccnc(C(F)(F)F)n2)CC1', 'melting point', '170 to 172 °C'),
  ('O=S(=O)(Nc1ccc2c(OCc3ccc(-c4ccc(F)cc4)cc3)cccc2c1)C(F)(F)F', 'melting point', '139 to 140 °C'),
  ('Cn1nnnc1SCC1NCCc2cc(OCc3ccccc3)c(OCc3ccccc3)cc21 (centres undefined)', 'melting point', '106 to 108 °C'),
  ('Cc1cccc2[nH]c(C(=O)NCCc3ccc(CCCC(=O)O)cc3)cc12', 'melting point', '132 to 134 °C');

Which measured melting point value corresponds to `COc1ccc2cc(C(=O)[C@H](C)OS(=O)(=O)c3ccccc3)ccc2c1` ?
74 to 75 °C

Quick one: melting point of `COc1ccc(C(=O)c2c(Cc3ccccc3)sc3cc(OC)ccc23)cc1` ?
110 to 112 °C

Any idea what its melting point is? The molecule is COc1ccc2c(c1OC)C(=O)OC21CN(C)Cc2ccccc21 (centres undefined)
193 to 194 °C

I would be grateful if you could share the reported melting point for `C/C(=C\C=C(c1ccccc1)c1ccccc1)C(=O)Oc1ccc([N+](=O)[O-])cc1` .
139 to 141 °C

====

List of melting point values.

Endpoint output: melting point of `O=C(O)CCc1nc(C(=O)O)ccc1O` . Value?
210 to 212 °C

// lookup melting point for `CC(=O)Nc1ccc(OCc2nc3ccc(F)cc3s2)cc1`
204 to 205 °C

Please report the recorded melting point for `CCCc1nn(C)c2c(=O)[nH]c(-c3ccccc3OC)nc12` .
140 to 141 °C

====

Parameter: melting point. Scope: all listed entries.

INSERT INTO assay_data (compound, measured_attribute, recorded_measurement) VALUES
  ('CCCCNS(=O)(=O)c1ccc(N2CCC(NC[C@H](O)COc3cccc4[nH]c(=O)[nH]c34)CC2)cc1', 'melting point', '69 to 75 °C'),
  ('COCC1OC(n2cnc3c(Cl)nc(Cl)nc32)C(OC(C)=O)C1OC(C)=O (stereo not given)', 'melting point', '59 to 61 °C'),
  ('Cc1ccc2c(c1)C(NC(=O)CCl)CC(C)(C)O2 (stereo not given)', 'melting point', '147 to 148 °C'),
  ('CCOC(=O)Cn1c(CC)nc2c(OCc3ccc(OC)cc3)cccc21', 'melting point', '112 °C');

// next item, melting point requested
Query (compound): `COc1cc(C(C)=O)ccc1SCCCN1CCC(c2noc3cc(F)ccc23)CC1` ; field requested: melting point
93 to 95 °C
